target: bromelain (Ananas comosus, UniProt P14518)
Sequence (P14518 whole entry): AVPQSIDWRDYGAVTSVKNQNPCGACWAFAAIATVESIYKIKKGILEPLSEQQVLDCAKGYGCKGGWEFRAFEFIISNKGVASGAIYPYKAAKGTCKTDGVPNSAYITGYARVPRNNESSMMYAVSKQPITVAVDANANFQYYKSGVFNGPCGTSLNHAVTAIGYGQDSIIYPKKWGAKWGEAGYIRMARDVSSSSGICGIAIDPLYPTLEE
Measurement Name: IC50 (µM)
Give bare numbers, in µM.

Exercise: // query IC50 value for entry CCCCOCCOCCOCc1cc2c(cc1CCC)OCO2
Key: 400
